System: beagle dog hepatocytes
protocol description: Metabolic stability in beagle dog hepatocytes
Format: in vitro ADME
assay conditions: 0.1 uM
measurement label: t1/2 (h)
Answers are plain numbers, in h.

{"compound": "COCCOCCOCCOCCOCCOCCOC(=O)NC(C(=O)NC(Cc1ccccc1)C(O)CN(Cc1ccc(-c2ccccn2)cc1)NC(=O)C(NC(=O)OC)C(C)(C)C)C(C)(C)C (stereo not shown)", "t1/2 [h]": 110.6}
{"compound": "COCCOCCOCCOCCOCCOc1ccc(C[C@H](NC(=O)O[C@H]2CO[C@H]3OCC[C@H]32)C(O)CN(CC(C)C)S(=O)(=O)c2ccc(N)cc2)cc1 (stereo partly shown)", "t1/2 [h]": 4.68}
{"compound": "COCCOCCOCCOc1ccc(C[C@H](NC(=O)O[C@H]2CO[C@H]3OCC[C@H]32)C(O)CN(CC(C)C)S(=O)(=O)c2ccc(N)cc2)cc1 (stereo partly shown)", "t1/2 [h]": 1.49}

Give the reported t1/2 for COCCOC(=O)NC(C(=O)NC(Cc1ccccc1)C(O)CN(Cc1ccc(-c2ccccn2)cc1)NC(=O)C(NC(=O)OC)C(C)(C)C)C(C)(C)C (stereo not shown) (system: beagle dog hepatocytes).
0.742

* * *

target system: hERG (Homo sapiens (Human))
Sequence (Q12809 whole entry): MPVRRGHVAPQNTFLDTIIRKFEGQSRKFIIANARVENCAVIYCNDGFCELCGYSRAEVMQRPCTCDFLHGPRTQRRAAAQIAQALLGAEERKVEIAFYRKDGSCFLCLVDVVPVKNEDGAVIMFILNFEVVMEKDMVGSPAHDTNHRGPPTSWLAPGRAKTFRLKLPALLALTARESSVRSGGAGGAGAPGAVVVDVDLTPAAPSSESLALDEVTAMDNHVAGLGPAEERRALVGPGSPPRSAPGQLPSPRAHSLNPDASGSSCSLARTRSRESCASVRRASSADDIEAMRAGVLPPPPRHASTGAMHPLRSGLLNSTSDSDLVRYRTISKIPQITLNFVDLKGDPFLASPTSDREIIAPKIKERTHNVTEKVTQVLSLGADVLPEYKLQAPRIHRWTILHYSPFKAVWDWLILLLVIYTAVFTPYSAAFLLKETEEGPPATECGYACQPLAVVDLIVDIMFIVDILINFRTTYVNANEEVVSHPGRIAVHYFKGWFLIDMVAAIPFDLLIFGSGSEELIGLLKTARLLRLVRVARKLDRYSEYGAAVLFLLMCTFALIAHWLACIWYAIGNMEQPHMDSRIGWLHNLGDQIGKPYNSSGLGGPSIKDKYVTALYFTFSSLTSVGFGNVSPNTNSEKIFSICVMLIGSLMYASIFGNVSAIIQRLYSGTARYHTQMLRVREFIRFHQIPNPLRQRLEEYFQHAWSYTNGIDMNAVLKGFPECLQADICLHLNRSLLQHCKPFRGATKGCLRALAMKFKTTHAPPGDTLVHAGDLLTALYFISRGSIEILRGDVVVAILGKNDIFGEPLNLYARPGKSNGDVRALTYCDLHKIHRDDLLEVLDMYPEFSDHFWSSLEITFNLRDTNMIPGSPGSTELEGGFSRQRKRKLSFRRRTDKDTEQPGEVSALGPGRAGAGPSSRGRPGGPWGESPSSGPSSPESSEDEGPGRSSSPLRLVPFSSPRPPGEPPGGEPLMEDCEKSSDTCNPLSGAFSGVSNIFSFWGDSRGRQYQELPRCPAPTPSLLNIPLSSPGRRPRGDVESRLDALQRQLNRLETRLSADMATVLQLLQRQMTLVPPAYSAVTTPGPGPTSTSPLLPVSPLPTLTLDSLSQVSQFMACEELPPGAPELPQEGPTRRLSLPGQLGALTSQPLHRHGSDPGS
protocol description: hERG current (IKr) in HEK-293 cells, whole-cell patch clamp
Assay type: cell-based
assay conditions: hERG current in HEK-293 cells, whole-cell patch clamp, 0.1 Hz; read-out: IC50 (Block of hERG at 0.1 Hz)
For each record, write down the corresponding IC50.
Answers are plain numbers, in µM.

{"molecule": "COC(=O)N[C@H](C(=O)N[C@@H](Cc1ccccc1)[C@@H](O)CN(Cc1ccc(-c2ccccn2)cc1)NC(=O)[C@@H](NC(=O)OC)C(C)(C)C)C(C)(C)C [Atazanavir, reference compound]", "target system": "hERG (Homo sapiens (Human))", "IC50 / µM": 63.9}

The record that follows has no IC50 shown yet.
Find the recorded IC50 belonging to COCCOCCOCCOC(=O)NC(C(=O)NC(Cc1ccccc1)C(O)CN(Cc1ccc(-c2ccccn2)cc1)NC(=O)C(NC(=O)OC)C(C)(C)C)C(C)(C)C (stereo not shown) and report it.
88.3

* * *

Test system: human hepatocytes
protocol description: Metabolic stability in cryopreserved human hepatocytes
assay conditions: human hepatocytes, 3 uM, incubated up to one hour
Mark YES only for CLint ± SEM values smaller than 10 μL/min/10^6 cells; exact matches and larger values are NO.

Reference set, count: 3
{"compound": "COCCOCCOCCOCCOCCNc1ccc(S(=O)(=O)N(CC(C)C)CC(O)[C@H](Cc2ccccc2)NC(=O)O[C@H]2CO[C@H]3OCC[C@H]32)cc1 (some centres unmarked)", "class assignment": "NO"}
{"compound": "COCCOCCOCCOCCOCCOC(=O)N[C@@H](C(=O)NC(Cc1ccccc1)[C@@H](O)CN(Cc1ccc(-c2ccccn2)cc1)NC(=O)[C@H](NC(=O)OCCOCCOCCOCCOCCOC)C(C)(C)C)C(C)(C)C (some centres unmarked)", "class assignment": "YES"}
{"compound": "COCCOCCOCCOCCOCCOCCOCCNc1ccc(S(=O)(=O)N(CC(C)C)CC(O)[C@H](Cc2ccccc2)NC(=O)O[C@H]2CO[C@H]3OCC[C@H]32)cc1 (some centres unmarked)", "class assignment": "YES"}

Lab note: confirm whether the reported CLint ± SEM for this compound is below 10 μL/min/10^6 cells, equality not counting. compound: COCCOCCOCCNc1ccc(S(=O)(=O)N(CC(C)C)CC(O)[C@H](Cc2ccccc2)NC(=O)O[C@H]2CO[C@H]3OCC[C@H]32)cc1 (some centres unmarked)
NO

Lab note: confirm whether the reported CLint ± SEM for this compound is below 10 μL/min/10^6 cells, equality not counting. compound: COCCOCCOCCOC(=O)N[C@@H](C(=O)NC(Cc1ccccc1)[C@@H](O)CN(Cc1ccc(-c2ccccn2)cc1)NC(=O)[C@H](NC(=O)OCCOCCOCCOC)C(C)(C)C)C(C)(C)C (some centres unmarked)
YES
